target: Replicase polyprotein 1ab (Severe acute respiratory syndrome-related coronavirus)

chemical-structure | units | IC50
COc1ccc(S(=O)(=O)N(C)C[C@H]2O[C@@H](n3cc(C#Cc4cnc5ccccc5c4)c4c(N)ncnc43)[C@H](O)[C@@H]2O)cc1C#N | nM | 0.141
CNc1ncnc2c1ncn2[C@@H]1O[C@H](CNS(=O)(=O)c2ccc(OC)c(C#N)c2)[C@@H](O)[C@H]1O | nM | 3990
COc1ccc(S(=O)(=O)N(C)C[C@H]2O[C@@H](n3cc(C#Cc4ccccc4)c4c(N)ncnc43)[C@H](O)[C@@H]2O)cc1C#N | nM | 0.8
CCN(C[C@H]1O[C@@H](n2cnc3c(NC)ncnc32)[C@H](O)[C@@H]1O)S(=O)(=O)c1ccc(OC)c(C#N)c1 | nM | 51.7
